- Test system: OVCAR-4
- Test details: NCI tumour cell line growth inhibition, 48 h
The source made the active and inactive calls. Rule as the data show it: active = GI50 up to about 1.1 µM and inactive = higher.
Quantity name: GI50

Before answering, review these 8 worked examples.
1) Cc1ccc(NC(=O)CC/C(CC(=O)C(C)(C)C)=N\NC(=O)C[n+]2ccccc2)cc1C; > 100 µM (inactive)
2) COc1cc(-c2coc3c(OC)c(OC4OC(COC5OC(C)C(O)C(O)C5O)C(O)C(O)C4O)c(OC)c(O)c3c2=O)cc(C)c1O (configuration not stated); 18.9 µM (inactive)
3) CC(O)C1(O)C(O)CC(OC2c3cc4c(c(O)c3[C@@H]3C[C@@]2(C)OC32C=c3cc[nH]c3=N2)C(=O)c2cccc(O)c2C4=O)OC1C (some centres not stated); 2.38 µM (inactive)
4) COc1cc2oc(-c3ccc4c(c3)OCO4)c(OC)c(=O)c2c(OC)c1O; 59.3 µM (inactive)
5) CC(=O)c1c2c(cc3c1CCC3)CCC2; 69.7 µM (inactive)
6) O=C(O)c1cc(NCc2cc(O)ccc2O)ccc1O [LAVENDUSTIN C]; > 100 µM (inactive)
7) CC(=O)N1CCN(C=S)CC1; > 100 µM (inactive)
8) CCc1cccc(NC(=O)c2cc(/C=C/c3ccccc3)nc(S)n2)c1; > 100 µM (inactive)

Entry O=[N+]([O-])c1cc(C(F)(F)F)cc2n[se]nc12 , GI50 reported as 1.97 µM (inactive)

Value of GI50 reported for the compound CCOC(=O)C(NC(=O)CC)(Nc1ccc(S(=O)(=O)Nc2nc(C)cc(C)n2)cc1)C(F)(F)F (configuration not stated) is > 100 µM (inactive)

# compound Cc1cccc2ns[s+]c12 ; its GI50 = > 100 µM (inactive)

Item: C=C1CC(C)(c2cccc(Nc3nc4ccccc4c4occc34)c2)OC1=O (configuration not stated) | GI50: 7.89 µM (inactive)

====

- Test system: MDA-N
- Test details: NCI tumour cell line growth inhibition, 48 h
The source made the active and inactive calls. Rule as the data show it: active = GI50 up to about 1.1 µM and inactive = higher.
Your reply should match one of these outcome classes. yes (1) (active), no (0) (inactive)

A selection of reference data follows.
1. NC(=O)c1csc(-c2ccc(CO)o2)n1; no (0)
2. Cn1c2ccccc2c(=S)c2cc(NC(=O)CCCCC(=O)Nc3ccc4c(c3)c(=S)c3ccccc3n4C)ccc21; no (0)
3. COc1cc2cc(C(=O)N3CC(CCl)c4c3cc([N+](=O)[O-])c3ccccc43)[nH]c2c(OC)c1OC (stereo unspecified); no (0)
4. C/C(=N\Nc1nc2ccccc2s1)c1ccc2ccccc2n1; no (0)
5. COc1cc(C2SCC(=O)N2c2ccc(Oc3ccc(Cl)cc3)c(Cl)c2)cc(OC)c1OC (stereo unspecified); no (0)

What was the test verdict on O=C(C=P(c1ccccc1)(c1ccccc1)c1ccccc1)c1ccccc1-c1ccccc1C(=O)C=P(c1ccccc1)(c1ccccc1)c1ccccc1 ?
yes (1)

Returns: the outcome recorded for CC(=O)OCC1OC(n2c(Br)nc3c2c(=O)n(C)c(=O)n3C)C(OC(C)=O)C1OC(C)=O (stereo unspecified) in this assay.
no (0)

# fetch the recorded call for CCCCc1c2c(c(C)c3c1C(=O)OC3)Oc1ccccc1O2 here
yes (1)

Just curious, what result did O=C(O)c1cc(NCc2cc(O)ccc2O)ccc1O [LAVENDUSTIN C] get here?
no (0)

// outcome(item) with item = Cc1ccc(C(=O)CC(O)(C(F)(F)F)C(F)(F)F)cc1[N+](=O)[O-]
no (0)

====

- Tested on: HCT-116
- Test details: NCI tumour cell line growth inhibition, 48 h
Activity calls are given as the source filed them. Cut-off read from the data, not from the text of the source: active = GI50 up to about 1.1 µM and inactive = higher.
Valid outcomes are listed here; reply with one: YES = active, NO = inactive

Answered cases to consult:
1. O=C1CC[C@@H](S(=O)(=O)c2ccccc2)[C@@H](/C=C/c2ccccc2)O1; NO
2. O=C(N[C@@H](c1ccccc1)[C@@H](O)C(=O)OCc1ccc([N+](=O)[O-])cc1)c1ccccc1; NO
3. N/N=C(\c1nc2ccc([N+](=O)[O-])cc2nc1O)C(O)c1ccc(Cl)c(Cl)c1 (stereo not given); NO
4. CC(=O)C(C(=O)c1ccc(C)cc1)[C@@H]1OC(C)(C)O[C@@H]1[C@H]1COC(C)(C)O1 (stereo not given in full); NO
5. COc1ccccc1NC(=S)Nc1cc(C)ccn1; NO

Which result was noted for this molecule in the test: CCCCCCCC(CC(=O)NC(CO)C(=O)NC(CO)CC(C)C)OC(=O)CC(CCCCCCC)OC(=O)CC(CCCCCCC)OC1OC(C)C(O)C(OC2OC(C)C(O)C(OC(C)=O)C2O)C1O (stereo not given)
NO

How was CC(=O)Oc1ccc2cc(Oc3ccccc3)c(=O)oc2c1 classified in this test?
NO

I would be grateful if you could indicate the recorded call for COC(=O)CC1C(=O)OCc2c1cc1n(c2=O)Cc2c-1nc1ccccc1c2OC (stereo not given) .
NO

Field: outcome | Entry: O=c1oc2nc(-c3ccccc3)cc(C(F)(F)F)c2n1Cc1ccccc1
NO

====

- Test system: UACC-62
- Test details: NCI tumour cell line growth inhibition, 48 h
Activity calls are given as the source filed them. Cut-off read from the data, not from the text of the source: active = GI50 up to about 1.1 µM and inactive = higher.
As shown below, each of these compounds has a reported GI50 value.

Here's what some known entries look like.
1. OCC(O)C1OC2CC1Nc1ccccc1N2 (stereo unspecified); > 100 µM (inactive)
2. Clc1nc(Cl)nc(NC23CC4CC(CC(C4)C2)C3)n1; 17.9 µM (inactive)
3. O=NN(CCCl)C(=O)N[C@H]1CC[C@@H](O)CC1; 13 µM (inactive)
4. CC(=O)O[C@H]1CCC2[C@@H]3CCC4Cc5nc6c(nc5C[C@]4(C)C3CC[C@@]21C)CC1CC[C@@H]2C(CC[C@@]3(C)C2CC[C@@H]3C(C)CCCC(C)C)[C@@]1(C)C6 (stereo partly specified); > 100 µM (inactive)
5. O=C(O)CNS(=O)(=O)c1ccc(NC(=O)CI)cc1; 25.1 µM (inactive)
6. COc1ncnc2c1cnn2Cc1cn(CCCCO)nn1; > 100 µM (inactive)
7. CCOc1ncn(-c2ccc(NC(=S)NC34CC5CC(CC(C5)C3)C4)cc2)n1; 38 µM (inactive)
8. O=C(O)c1ccn(-c2cccc(-n3ccc(C(=O)O)n3)n2)n1; > 100 µM (inactive)

The compound identified as c1ccc2c(c1)OC(N1CCCC1)c1cnc(N3CCCC3)nc1-2 (stereo unspecified) registered its GI50 at 50.7 µM (inactive)

GI50 reading for Cc1ccc(C(=O)N2CCN(C(=O)c3ccc(C)cc3)c3ccccc32)cc1 : 2.01 µM (inactive)

Per the record, COc1cc(OC)c2c(O)c3c(cc2c1)CC(C)(C)CC3=O has GI50 of 90.6 µM (inactive)

====

- Test system: SF-539
- Test details: NCI tumour cell line growth inhibition, 48 h
Activity calls are given as the source filed them. Rule as the data show it: active = GI50 up to about 1.1 µM and inactive = higher.
One label from this list, please: active, inactive

1) Clc1c2nc3ccccc3c-2[nH]c2ccccc12; inactive

Please look at the following molecule next.
Please share the test call associated with CCOC(=O)c1ccc(C)c(/N=N/N(C)C)c1 .
inactive

====

- Tested on: IGROV-1
- Test details: NCI tumour cell line growth inhibition, 48 h
The source made the active and inactive calls. No stated cut-off is given here; in the data, active = GI50 up to about 1.1 µM and inactive = higher.
Entries and their GI50 values follow.

1. Cc1ccc(/C=N/NS(=O)(=O)c2ccccc2)cc1C; 51.5 µM (inactive)
2. CCCCS(=N)(=O)CC[C@H](N)C(=O)O (stereo partly specified); 2110 µM (inactive)
3. Cc1ccc(C2COc3cc(O)c(O)cc3C2)cc1 (stereo unspecified); 14.6 µM (inactive)
4. Cc1cccc2c(=O)c3cccc(CC(=O)O)c3oc12; > 100 µM (inactive)
5. NC(=O)c1csc(-c2ccc(CO)o2)n1; > 100 µM (inactive)

Moving on to another compound below.
Item: C[n+]1c(-c2ccc(/C=N/N=C/c3ccc(-c4cn5ccccc5[n+]4C)cc3)cc2)cn2ccccc21 | GI50: > 100 µM (inactive)

====

Catalogue of GI50 readings, one per entry.
- Test system: OVCAR-4
- Test details: NCI tumour cell line growth inhibition, 48 h
The source made the active and inactive calls. No stated cut-off is given here; in the data, active = GI50 up to about 1.1 µM and inactive = higher.

Examples with answers:
1) C[C@]12CC[C@@H]3c4ccc(O)cc4CC[C@H]3[C@@H]1CC[C@@H]2OC(=O)CCC1CCCC1 [ESTRADIOL CYPIONATE]; 17.5 µM (inactive)
2) CC1OC(n2cc(F)c(=O)[nH]c2=O)C(O[Si](C)(C)C(C)(C)C)C1O[Si](C)(C)C(C)(C)C (stereo not given); 6.41 µM (inactive)

Notebook: Cc1ccc(C(=O)CC(O)(C(F)(F)F)C(F)(F)F)cc1[N+](=O)[O-] , GI50 read as 15.8 µM (inactive)

So for CCOC(=O)CC(=O)Sc1ccccc1 , the logged GI50 turned out to be 37.7 µM (inactive)

====

Overview of recorded GI50 for various molecules
- System: MDA-MB-435
- Test details: NCI tumour cell line growth inhibition, 48 h
The source made the active and inactive calls. Rule as the data show it: active = GI50 up to about 1.1 µM and inactive = higher.

1) CC1=NN=C(N)N/C1=C\C(Sc1ccc(Cl)cc1)c1ccc(Cl)cc1Cl (stereo not given); 18.1 µM (inactive)
2) Cc1ccnc2[nH]c3ccccc3c(=O)c12; 19.6 µM (inactive)
3) C1=C[C@]2(CCC13OCCO3)COc1ccccc12; 31.9 µM (inactive)
4) CCOP(=O)(OCC)/C(=C\n1c(=S)[nH]c2cc(C)ccc21)C(=O)OC; > 100 µM (inactive)
5) CCCCNS(=O)(=O)c1n[nH]c(=O)[nH]c1=O; > 100 µM (inactive)

For record OC(c1cc(-c2ccc(C(F)(F)F)cc2)nc(C(F)(F)F)c1)C1CCCCN1 (stereo not given) [ENPIROLINE PHOSPHATE] the listed GI50 is 1.86 µM (inactive)

# GI50 (molecule: COc1ccc(/C=C(/c2ccccc2)c2c(C)cc(C)c(/C(=C\c3ccc(OC)cc3)c3ccccc3)c2/N=N/c2cc(C)cc(C)c2)cc1 ) is 14.6 µM (inactive)

Sure, the documented GI50 for CC(=O)OC1CC[C@@]2(C)C(CC[C@]3(C)C2CC=C2[C@@H]4C(C)[C@H](C)CCC4(C)CCC23C)[C@@]1(C)C(=O)O (stereo not given in full) is 19.8 µM (inactive)

The reported value for O=C1CSC(=S)N1c1ccco1 in terms of GI50 is 24.2 µM (inactive)

The molecule identified as C[n+]1c(-c2ccc(/C=N/N=C/c3ccc(-c4cn5ccccc5[n+]4C)cc3)cc2)cn2ccccc21 registered its GI50 at > 100 µM (inactive)

Data provenance is ChEMBL document CHEMBL1201862.
